# Test system: Shigella flexneri
# Experiment: growth AUC normalised to DMSO control (fraction of control); higher = less growth inhibition, active = hit call of the paper
# Details: 20 µM
Structures can show the parent of a compound that is named as a salt.
Select the correct class. Options are active, inactive and nothing else.

Compound | Assigned label
CC(C)c1cccc(C(C)C)c1O | inactive

Which outcome did this test record for the compound `C#C[C@]1(O)CC[C@H]2[C@@H]3CCC4=CC(=O)CCC4=C3C=C[C@@]21CC` ? inactive

Each compound tested received a call. Report the one for `CN1[C@@H]2CC[C@H]1C[C@@H](OC(=O)[C@H](CO)c1ccccc1)C2` . inactive

// return assay outcome for COc1cccc(C2(O)CCCCC2CN(C)C)c1 (stereo not drawn) [Tramadol hydrochloride] inactive

Per the assay record, what outcome was assigned to COc1ccc(OC)c(C(O)C(C)N)c1 (stereo not drawn) [Methoxamine hydrochloride] ? inactive

Name the outcome recorded for CC(C)C[C@H]1C(=O)N2CCC[C@H]2[C@]2(O)O[C@](NC(=O)[C@@H]3C=C4c5cccc6[nH]c(Br)c(c56)C[C@H]4N(C)C3)(C(C)C)C(=O)N12 [Bromocryptine mesylate] in the assay. inactive

* * *

# Tested on: Yersinia pseudotuberculosis
# Experiment: growth AUC normalised to DMSO control (fraction of control); higher = less growth inhibition, active = hit call of the paper
# Details: 20 µM
Structures can show the parent of a compound that is named as a salt.
growth AUC normalised to DMSO control for assorted compounds
// print number alone

Compound | Experimental target | growth AUC normalised to DMSO control
O=c1[nH]c2ccccc2n1CCCN1CCC(n2c(=O)[nH]c3cc(Cl)ccc32)CC1 | Yersinia pseudotuberculosis | 1

Look up growth AUC normalised to DMSO control: `O=c1c2ccccc2[se]n1-c1ccccc1` 0.974

Any idea what growth AUC normalised to DMSO control was measured for CC[N+]1(C)CCCC(OC(=O)C(O)(c2ccccc2)c2ccccc2)C1 (centres undefined) [Pipenzolate bromide] ? 1.01

Request the reported growth AUC normalised to DMSO control associated with CN1[C@@H]2C[C@@H](OC(=O)[C@H](CO)c3ccccc3)C[C@H]1[C@@H]1O[C@@H]12 [Scopolamine hydrochloride] 1.03

* * *

# System: Haemophilus parainfluenzae
# Experiment: growth AUC normalised to DMSO control (fraction of control); higher = less growth inhibition, active = hit call of the paper
# Details: 20 µM
Structures can show the parent of a compound that is named as a salt.
Response enum: active, inactive

Look up the recorded call for CCCC1C(=O)N2C(N(C)C)=Nc3ccc(C)cc3N2C1=O (centres undefined) in this test. inactive

Assay result, entry O=[N+]([O-])O[C@@H]1CO[C@H]2[C@@H]1OC[C@@H]2O [Isosorbide mononitrate] — outcome? inactive

Assay outcome for COCCCOc1ccnc(C[S+]([O-])c2nc3ccccc3[nH]2)c1C (centres undefined) [Rabeprazole sodium salt] : what was it? inactive

* * *

# Test system: P. vulgatus WT;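 also: active when median AUC fell below 0.1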
# Experiment: growth AUC normalised to DMSO control (median) (fraction of control); higher = less growth inhibition, active = hit call of the paper
# Details: 20 µM
Structures can show the parent of a compound that is named as a salt.
Would you mind labelling by growth AUC normalised to DMSO control? At or over 1 is true, under is false.

Compound | Assigned label
O=[N+]([O-])O[C@H]1CO[C@H]2[C@@H]1OC[C@H]2O[N+](=O)[O-] [Isosorbide dinitrate] | false
C[C@]12CC[C@H](O)C[C@H]1CC[C@@H]1[C@@H]2CC[C@]2(C)[C@@H](C3=CC(=O)OC3)CC[C@]12O | false
CC(C)C[C@H]1C(=O)N2CCC[C@H]2[C@]2(O)O[C@](NC(=O)[C@@H]3C=C4c5cccc6[nH]c(Br)c(c56)C[C@H]4N(C)C3)(C(C)C)C(=O)N12 [Bromocryptine mesylate] | true

Please check the record `CCN(C)C(=O)Oc1cccc([C@H](C)N(C)C)c1` and state if its growth AUC normalised to DMSO control is at or above 1. true

Textbook exercise: given the entry `CC(C)c1cccc(C(C)C)c1O` , state whether its growth AUC normalised to DMSO control is greater than or equal to 1. true
